- System: KRAS patient-derived spheroids with HUVEC/MSC, viability;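 further: compound exposure lasted seven days before readout; 100% = DMSO vehicle control viability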
- Assay Method Text: Anticancer human tumor 519858-162-T-J1-PDC patient-derived colon adenocarcinoma cell line growth inhibition [KRAS2]
- Details: second compound 1 µM; first compound 0.316 µM; hits give low values
Outcome Measure: viability, T/C (%)
Numbers only, in %.

[
  {
    "Compound": "COc1cc2nccc(Oc3ccc(NC(=O)C4(C(=O)Nc5ccc(F)cc5)CC4)cc3)c2cc1OC + C=CC(=O)N1CCN(c2nc(OCC3CCCN3C)nc3c2CCN(c2cccc4cccc(C)c24)C3)CC1CC#N",
    "viability, T/C [%]": 77.6
  },
  {
    "Compound": "CCN1CCN(Cc2ccc(Nc3ncc(F)c(-c4cc(F)c5nc(C)n(C(C)C)c5c4)n3)nc2)CC1 + CNCc1ccccc1-c1csc(C(C)Nc2nc(C)nc3cc(OC)c(OC)cc23)c1",
    "viability, T/C [%]": 49.3
  },
  {
    "Compound": "CCNC(=O)CC1N=C(c2ccc(Cl)cc2)c2cc(OC)ccc2-n2c(C)nnc21 (stereo unspecified) + C=CC(=O)N1CCN(c2nc(OCC3CCCN3C)nc3c2CCN(c2cccc4cccc(C)c24)C3)CC1CC#N",
    "viability, T/C [%]": 70.4
  }
]

Look at each compound and report its viability, T/C.
1. COc1cc(Nc2ncc3c(n2)-c2ccc(Cl)cc2C(c2c(F)cccc2OC)=NC3)ccc1C(=O)O + CNCc1ccccc1-c1csc(C(C)Nc2nc(C)nc3cc(OC)c(OC)cc23)c1
2. COC(=O)c1ccc2c(C(=Nc3ccc(N(C)C(=O)CN4CCN(C)CC4)cc3)c3ccccc3)c(O)[nH]c2c1 + CNCc1ccccc1-c1csc(C(C)Nc2nc(C)nc3cc(OC)c(OC)cc23)c1
3. CCN1CCN(Cc2ccc(Nc3ncc(F)c(-c4cc(F)c5nc(C)n(C(C)C)c5c4)n3)nc2)CC1 + C=CC(=O)N1CCN(c2nc(OCC3CCCN3C)nc3c2CCN(c2cccc4cccc(C)c24)C3)CC1CC#N
4. Cn1nccc1Nc1nccc(-c2cc3c(s2)C(C)(C)N(CCN2CCOCC2)C3=O)n1 + CC1OCC2(CCN(c3cnc(Sc4ccnc(N)c4Cl)c(N)n3)CC2)C1N
5. CC(C)NCC(C(=O)N1CCN(c2ncnc3c2C(C)CC3O)CC1)c1ccc(Cl)cc1 (stereo unspecified) + C=CC(=O)N1CCN(c2nc(OCC3CCCN3C)nc3c2CCN(c2cccc4cccc(C)c24)C3)CC1CC#N
6. CC(C)NCC(C(=O)N1CCN(c2ncnc3c2C(C)CC3O)CC1)c1ccc(Cl)cc1 (stereo unspecified) + COc1cc2nc(C)nc(NC(C)c3cc(N)cc(C(F)(F)F)c3)c2cc1OC1CCOC1
7. COc1cc(Nc2ncc3c(n2)-c2ccc(Cl)cc2C(c2c(F)cccc2OC)=NC3)ccc1C(=O)O + CC1OCC2(CCN(c3cnc(Sc4ccnc(N)c4Cl)c(N)n3)CC2)C1N
8. COC(=O)c1ccc2c(C(=Nc3ccc(N(C)C(=O)CN4CCN(C)CC4)cc3)c3ccccc3)c(O)[nH]c2c1 + CC1OCC2(CCN(c3cnc(Sc4ccnc(N)c4Cl)c(N)n3)CC2)C1N

## Output
1. 73
2. 103
3. 73
4. 48.6
5. 48.3
6. 78.2
7. 57.9
8. 56.9
